Quick record: IC50, GST-tagged Tankyrase-1 (1023-1327 aa) (Homo sapiens).

{"columns": ["record-smiles", "target-or-system", "value-reported"],
 "data": [
  ["O=c1[nH]c(N2CCN(c3ccc(F)cc3)CC2)nc2c1CCCC2", "GST-tagged Tankyrase-1 (1023-1327 aa) (Homo sapiens)", "0.3 to 3 µM"],
  ["O=C(N1CCCCC1)N1CCN(c2nc3c(c(=O)[nH]2)CCCC3)CC1", "GST-tagged Tankyrase-1 (1023-1327 aa) (Homo sapiens)", "3 to 50 µM"]
]}

Please look at the following compound next.
Problem: Test system GST-tagged Tankyrase-1 (1023-1327 aa) (Homo sapiens); read-out IC50; what value for `CC(C)Oc1ccccc1N1CCN(c2nc3c(c(=O)[nH]2)CCCC3)CC1` ?
Result: 0.3 to 3 µM

###

test system: tankyrase 1/2; assay: Measurement of cellular inhibition of tankyrase (Axin2 level, Luminex based assay, DLD1 cells); conditions: 24 hours, increase of Axin2 level, read-out: EC50 tankyrase 1/2 (cell assay)
pEC50: −log10 of the molar value.
observed-property: pEC50

{"columns": ["record-smiles", "target-or-system", "pEC50"],
 "data": [
  ["O=C(N1CCOCC1)N1CCN(c2nc3c(c(=O)[nH]2)CCCC3)CC1", "tankyrase 1/2", "4.30 to 5.52"]
]}

Problem: I am curious: what pEC50 value has been reported for `CC(C)(C)N1CCN(c2nc3c(c(=O)[nH]2)CCCC3)CC1` ?
Result: 4.30 to 5.52

Problem: I am curious: what pEC50 value has been reported for `O=c1[nH]c(N2CCN(c3ccc(Cl)cc3)CC2)nc2c1CCCC2` ?
Result: 4.30 to 5.52

Problem: I am curious: what pEC50 value has been reported for `COc1ccc(N2CCN(c3nc4c(c(=O)[nH]3)CCCC4)CC2)cc1` ?
Result: 5.52 to 6.52

Problem: I am curious: what pEC50 value has been reported for `O=c1[nH]c(N2CCN(c3cccc(F)c3)CC2)nc2c1CCCC2` ?
Result: 4.30 to 5.52

Problem: I am curious: what pEC50 value has been reported for `N#Cc1ccccc1N1CCN(c2nc3c(c(=O)[nH]2)CCCC3)CC1` ?
Result: 5.52 to 6.52

###

Quick record: IC50, GST-tagged Tankyrase-1 (1023-1327 aa) (Homo sapiens, UniProt O95271).

{"columns": ["record-smiles", "IC50"],
 "data": [
  ["COc1ccccc1C1CCN(c2nc3c(c(=O)[nH]2)CCCC3)CC1", "< 0.3 µM"],
  ["O=c1[nH]c(N2CCC(O)(c3ccccc3)CC2)nc2c1CCCC2", "0.3 to 3 µM"],
  ["COc1ccc(N2CCN(c3nc4c(c(=O)[nH]3)CCCC4)CC2=O)cc1", "3 to 50 µM"],
  ["O=c1[nH]c(N2CCN(CCO)CC2)nc2c1CCCC2", "3 to 50 µM"],
  ["O=c1[nH]c(N2CCN(c3cccnc3)CC2)nc2c1CCCC2", "0.3 to 3 µM"]
]}

Please look at the following compound next.
Problem: Test system GST-tagged Tankyrase-1 (1023-1327 aa) (Homo sapiens, UniProt O95271); read-out IC50; what value for `O=c1[nH]c(N2CCC(C(F)(F)F)CC2)nc2c1CCCC2` ?
Result: 0.3 to 3 µM

###

tested on: tankyrase 1/2; assay: Measurement of cellular inhibition of tankyrase (Axin2 level, Luminex based assay, DLD1 cells); settings: 24 hours, increase of Axin2 level, read-out: EC50 tankyrase 1/2 (cell assay)
Listed compounds paired with reported EC50

Problem: I am curious: what EC50 value has been reported for `O=c1[nH]c(N2CCN(c3ccccc3Cl)CC2)nc2c1CCCC2` ?
Result: 0.3 to 3 µM

Problem: I am curious: what EC50 value has been reported for `COc1cccc(N2CCN(c3nc4c(c(=O)[nH]3)CCCC4)CC2)c1` ?
Result: 0.3 to 3 µM

Problem: I am curious: what EC50 value has been reported for `O=c1[nH]c(N2CCN(c3ccccc3C(F)(F)F)CC2)nc2c1CCCC2` ?
Result: 0.3 to 3 µM
